For each record, write down the corresponding NanoBRET Fold Response.
biological target: CCR2 (Homo sapiens); construct: purchased Promega (in-house HiBiT-GPCR construct library, NanoBRET); assay: NanoBRET screen HiBiT-CCR2 in HEK293; format: binding; details: CCR2; tracer 1μM
Respond numerically, and do not add a unit to the figure.

Request: Find the recorded NanoBRET Fold Response belonging to Cc1nc2n(c(=O)c1CCN1CCC(c3noc4cc(F)ccc34)CC1)CCCC2OC(=O)NCCOCCOCCOCCOCCNC(=O)CCc1ccc2n1[B-](F)(F)[N+]1=C(c3ccc[nH]3)C=CC1=C2 (stereo not drawn) and report it.
Response: 1.16

Request: Find the recorded NanoBRET Fold Response belonging to `COc1ccccc1N1CCN(CCCCN2C(=O)c3ccc(CNC(=O)CCOCCOCCOCCOCCNC(=O)CCc4ccc5n4[B-](F)(F)[N+]4=C(c6ccc[nH]6)C=CC4=C5)cc3C2=O)CC1` and report it.
Response: 1.00

Request: Find the recorded NanoBRET Fold Response belonging to `CC(C)N(CC[C@H](c1ccccc1)c1cc(CCNC(=O)CCOCCOCCOCCOCCNC(=O)CCc2ccc3n2[B-](F)(F)[N+]2=C(c4ccc[nH]4)C=CC2=C3)ccc1O)C(C)C` and report it.
Response: 0.98

Request: Find the recorded NanoBRET Fold Response belonging to `COc1ccccc1N1CCN(CCCCN2C(=O)c3ccc(CNC(=O)CCOCCNC(=O)c4ccc(CNC(=O)CCc5ccc6n5[B-](F)(F)[N+]5=C(c7ccc[nH]7)C=CC5=C6)cc4)cc3C2=O)CC1` and report it.
Response: 0.94

Request: Find the recorded NanoBRET Fold Response belonging to O=C(CCc1ccc2n1[B-](F)(F)[N+]1=C(c3ccc[nH]3)C=CC1=C2)NCc1ccc(C(=O)NCCOCCC(=O)N[C@@H]2CC[C@@]3(O)[C@H]4Cc5ccc(O)c6c5[C@@]3(CCN4CC3CC3)[C@H]2O6)cc1 [Naltrexone-3-NB590] and report it.
Response: 0.70

Request: Find the recorded NanoBRET Fold Response belonging to `O=C(CCc1ccc2n1[B-](F)(F)[N+]1=C(c3ccc[nH]3)C=CC1=C2)NCCOCCOCCNC(=O)OCCOCCN1CCN(C2=Nc3ccccc3Sc3ccccc32)CC1` and report it.
Response: 0.88

* * *

biological target: CCR2 (Homo sapiens, UniProt P41597); construct: purchased Promega (in-house HiBiT-GPCR construct library, NanoBRET); assay: NanoBRET screen HiBiT-CCR2 in HEK293; type: binding; conditions: CCR2; tracer 0.1μM
Sequence (P41597 whole entry): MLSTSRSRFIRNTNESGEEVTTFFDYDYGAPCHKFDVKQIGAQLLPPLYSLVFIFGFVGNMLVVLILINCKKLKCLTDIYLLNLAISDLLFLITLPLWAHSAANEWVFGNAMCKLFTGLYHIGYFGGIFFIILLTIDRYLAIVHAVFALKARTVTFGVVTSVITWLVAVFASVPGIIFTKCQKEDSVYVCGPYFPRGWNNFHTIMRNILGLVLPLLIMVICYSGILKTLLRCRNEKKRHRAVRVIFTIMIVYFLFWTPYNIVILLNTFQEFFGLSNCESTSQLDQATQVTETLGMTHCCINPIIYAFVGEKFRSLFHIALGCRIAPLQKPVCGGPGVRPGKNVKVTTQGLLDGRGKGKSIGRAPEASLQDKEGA
For each record, write down the corresponding NanoBRET Fold Response.
Respond numerically, and do not add a unit to the figure.

Request: Find the recorded NanoBRET Fold Response belonging to Cc1cc2c(s1)Nc1ccccc1N=C2N1CCN(CCCNC(=O)CCOCCOCCOCCOCCNC(=O)CCc2ccc3n2[B-](F)(F)[N+]2=C(c4ccc[nH]4)C=CC2=C3)CC1 [Olanzapine-a-2-NB590] and report it.
Response: 1.00

Request: Find the recorded NanoBRET Fold Response belonging to N#CN=C(NCCCOc1cccc(CN2CCCCC2)c1)NCCNC(=O)CCOCCOCCOCCOCCNC(=O)CCc1ccc2n1[B-](F)(F)[N+]1=C(c3ccc[nH]3)C=CC1=C2 [Aminopotentidine-2-NB590] and report it.
Response: 0.93

Request: Find the recorded NanoBRET Fold Response belonging to CC(C)N(CC[C@H](c1ccccc1)c1cc(CCNC(=O)c2ccc(CNC(=O)CCc3ccc4n3[B-](F)(F)[N+]3=C(c5ccc[nH]5)C=CC3=C4)cc2)ccc1O)C(C)C [Tolterodine-BZ-NB590] and report it.
Response: 0.99

Request: Find the recorded NanoBRET Fold Response belonging to Cc1nc2n(c(=O)c1CCN1CCC(c3noc4cc(F)ccc34)CC1)CCCC2OC(=O)NCCOCCOCCOCCOCCNC(=O)CCc1ccc2n1[B-](F)(F)[N+]1=C(c3ccc[nH]3)C=CC1=C2 (centres unmarked) [Risperidone-2-NB590] and report it.
Response: 1.01

Request: Find the recorded NanoBRET Fold Response belonging to O=C(CCc1ccc2n1[B-](F)(F)[N+]1=C(c3ccc[nH]3)C=CC1=C2)NCc1ccc(C(=O)NCCOCCC(=O)N[C@@H]2CC[C@@]3(O)[C@H]4Cc5ccc(O)c6c5[C@@]3(CCN4CC3CC3)[C@H]2O6)cc1 [Naltrexone-3-NB590] and report it.
Response: 1.12

Request: Find the recorded NanoBRET Fold Response belonging to COc1ccccc1N1CCN(CCCCN2C(=O)c3ccc(CNC(=O)CCOCCNC(=O)c4ccc(CNC(=O)CCc5ccc6n5[B-](F)(F)[N+]5=C(c7ccc[nH]7)C=CC5=C6)cc4)cc3C2=O)CC1 [NAN-190-3-NB590] and report it.
Response: 0.82

Request: Find the recorded NanoBRET Fold Response belonging to CCCn1c(=O)c2[nH]c(-c3ccc(OCC(=O)NCCNC(=O)CCOCCNC(=O)c4ccc(CNC(=O)CCc5ccc6n5[B-](F)(F)[N+]5=C(c7ccc[nH]7)C=CC5=C6)cc4)cc3)nc2n(CCC)c1=O [XAC-3-NB590] and report it.
Response: 1.08

Request: Find the recorded NanoBRET Fold Response belonging to COc1ccccc1N1CCN(CCCCN2C(=O)c3ccc(CNC(=O)CCOCCOCCOCCOCCNC(=O)CCc4ccc5n4[B-](F)(F)[N+]4=C(c6ccc[nH]6)C=CC4=C5)cc3C2=O)CC1 [NAN-190-2-NB590] and report it.
Response: 1.04
